meta.source: patent US11414416B1

Recorded IC50 for the following compounds
target-system: BRD9 bromodomain (Homo sapiens (Human), UniProt Q9H8M2)
Sequence (Q9H8M2 133-239): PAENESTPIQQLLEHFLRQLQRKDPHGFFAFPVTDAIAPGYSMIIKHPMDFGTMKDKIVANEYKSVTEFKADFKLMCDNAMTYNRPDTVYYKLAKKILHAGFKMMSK
assay-overview: BRD9 bromodomain TR-FRET competition binding assay
study-conditions: Table 4; competition with biotinylated ligand, 3 nM Flag-BRD9, 90 minutes

A selection of reference data follows.
# value of IC50, BRD9 bromodomain (Homo sapiens (Human), UniProt Q9H8M2), item COc1cc(-c2cn(C)c(=O)c3cnccc23)cc(OC)c1CN(C)CC1CC2(CCN(C(=O)CCOCCOc3ccc4c(c3)C(=O)N(C3CCC(=O)NC3=O)C4=O)CC2)C1 (centres unmarked) = 0.01 to 0.1 µM

# value of IC50, BRD9 bromodomain (Homo sapiens (Human), UniProt Q9H8M2), item COc1cc(-c2cn(C)c(=O)c3cnccc23)cc(OC)c1CN(C)CC1CC2CN(C(=O)CCOCCOc3cccc4c3C(=O)N(C3CCC(=O)NC3=O)C4=O)C[C@H]2C1 (some centres unmarked) = < 0.01 µM

# value of IC50, BRD9 bromodomain (Homo sapiens (Human), UniProt Q9H8M2), item COc1cc(-c2cn(C)c(=O)c3cnccc23)cc(OC)c1CN1CCC(C2CCN(C(=O)CCOCCOc3ccc4c(c3)C(=O)N(C3CCC(=O)NC3=O)C4=O)C2)CC1 (centres unmarked) = < 0.01 µM

# value of IC50, BRD9 bromodomain (Homo sapiens (Human), UniProt Q9H8M2), item COc1cc(-c2cn(C)c(=O)c3cnccc23)cc(OC)c1CN1CC(S(=O)(=O)NCCCCCCNc2ccc3c(c2)C(=O)N(C2CCC(=O)NC2=O)C3=O)C1 (centres unmarked) = < 0.01 µM

# value of IC50, BRD9 bromodomain (Homo sapiens (Human), UniProt Q9H8M2), item COc1cc(-c2cn(C)c(=O)c3cnccc23)cc(OC)c1CN1CCC(OC2CCN(C(=O)CCOCCOc3ccc4c(c3)C(=O)N(C3CCC(=O)NC3=O)C4=O)C2)CC1 (centres unmarked) = < 0.01 µM

# value of IC50, BRD9 bromodomain (Homo sapiens (Human), UniProt Q9H8M2), item COc1cc(-c2cn(C)c(=O)c3cnccc23)cc(OC)c1CN(C)CC1CC12CCN(C(=O)CCOCCOc1ccc3c(c1)C(=O)N(C1CCC(=O)NC1=O)C3=O)CC2 (centres unmarked) = < 0.01 µM

***
# value of IC50, BRD9 bromodomain (Homo sapiens (Human), UniProt Q9H8M2), item COc1cc(-c2cn(C)c(=O)c3cnccc23)cc(OC)c1CN1CC(C(=O)NCCS(=O)(=O)CCNc2cccc3c2C(=O)N(C2CCC(=O)NC2=O)C3=O)C1 (centres unmarked) = < 0.01 µM

# value of IC50, BRD9 bromodomain (Homo sapiens (Human), UniProt Q9H8M2), item COc1cc(-c2cn(C)c(=O)c3cc(O)ccc23)cc(OC)c1CN1CCC2(CC1)CN(C(=O)CCCOc1cccc3c1C(=O)N(C1CCC(=O)NC1=O)C3=O)CCO2 (centres unmarked) = 0.01 to 0.1 µM

# value of IC50, BRD9 bromodomain (Homo sapiens (Human), UniProt Q9H8M2), item COc1cc(-c2cn(C)c(=O)c3cnccc23)cc(OC)c1CN1CC(C(=O)N2CCC(C3CCN(C(=O)COc4cccc5c4C(=O)N(C4CCC(=O)NC4=O)C5=O)CC3)CC2)C1 (centres unmarked) = < 0.01 µM

# value of IC50, BRD9 bromodomain (Homo sapiens (Human), UniProt Q9H8M2), item COc1cc(-c2cn(C)c(=O)c3cnccc23)cc(OC)c1CN(C)CC12CC(C(=O)NCCOCCOCCNc3cccc4c3C(=O)N(C3CCC(=O)NC3=O)C4=O)(C1)C2 (centres unmarked) = 0.01 to 0.1 µM

# value of IC50, BRD9 bromodomain (Homo sapiens (Human), UniProt Q9H8M2), item COc1cc(-c2cn(C)c(=O)c3cnccc23)cc(OC)c1CN1CCC2(C1)CN(C(=O)CCOCCOc1ccc3c(c1)C(=O)N(C1CCC(=O)NC1=O)C3=O)C2 (centres unmarked) = 0.01 to 0.1 µM
